tested on: OVCAR-4; experiment: NCI tumour cell line growth inhibition, 48 h
Activity calls are given as the source filed them. Cut-off read from the data, not from the text of the source: active = GI50 up to about 1.1 µM and inactive = higher.
API: response.call in 1.0 (active), 0.0 (inactive)

                                   compound  classassignment
0  Cc1cc(O)nc(NN2C(Cl)C(=O)C2c2c(O)ccc3ccccc23)n1 (stereo not drawn)              0.0
1  CCC(C)(O)c1cnc(CC(C)C)c(=O)n1O (stereo not drawn)              0.0

Could you kindly confirm the outcome this assay logged for C=C(C)C1Cc2c(cc(OC)c3c(=O)c4ccccc4n(C)c23)O1 (stereo not drawn) ?
0.0

Field: outcome | Entry: N#CC(NNC(=O)c1ccccc1O)c1ccc(O)cc1 (stereo not drawn)
0.0

Assay outcome for O=C(c1ccc([N+](=O)[O-])cc1[N+](=O)[O-])N(/N=C/C=C/c1ccccc1)c1nnc(-c2ccccc2)c(-c2ccccc2)n1 : what was it?
0.0

So what was the verdict on C/C(=N\Nc1nc2ccccc2o1)c1ncccn1 in this test?
1.0

Which outcome was assigned to O=CNc1ncn[nH]1 in this test?
0.0

Dear all, I need the recorded test outcome for O=C1/C(=C/c2ccc(F)cc2)CNC/C1=C\c1ccc(F)cc1 , thank you.
0.0

Recorded test outcome, item Clc1ccc(-n2nnc(C3=NCCN3)c2-c2ccccc2)cc1
0.0

Lab log entry: CC(C)(C)c1cc(C(CO)OCCOCCO)cc(C(C)(C)C)c1O (stereo not drawn) — outcome as called in the assay?
0.0

Short answer needed: outcome of this test for N#CC12C(=O)N3C(=NC(c4ccco4)NC3c3ccco3)C1(C#N)C(c1ccco1)NC1=C2CCCC1 (stereo not drawn) ?
0.0

Write down the call the test reported for this compound. Item: O=[N+]([O-])O
0.0

Please state the recorded outcome for this compound: N#CCC(=O)N/N=C1/C(=O)N(c2cc(Cl)ccc2Cl)C(=O)C(=O)C1c1nc2ccccc2s1 (stereo not drawn)
0.0

Data provenance: ChEMBL document CHEMBL1201862
